B1: PhoQ; a variant is named by its letters at X, in order, P23837 (parent)
chain: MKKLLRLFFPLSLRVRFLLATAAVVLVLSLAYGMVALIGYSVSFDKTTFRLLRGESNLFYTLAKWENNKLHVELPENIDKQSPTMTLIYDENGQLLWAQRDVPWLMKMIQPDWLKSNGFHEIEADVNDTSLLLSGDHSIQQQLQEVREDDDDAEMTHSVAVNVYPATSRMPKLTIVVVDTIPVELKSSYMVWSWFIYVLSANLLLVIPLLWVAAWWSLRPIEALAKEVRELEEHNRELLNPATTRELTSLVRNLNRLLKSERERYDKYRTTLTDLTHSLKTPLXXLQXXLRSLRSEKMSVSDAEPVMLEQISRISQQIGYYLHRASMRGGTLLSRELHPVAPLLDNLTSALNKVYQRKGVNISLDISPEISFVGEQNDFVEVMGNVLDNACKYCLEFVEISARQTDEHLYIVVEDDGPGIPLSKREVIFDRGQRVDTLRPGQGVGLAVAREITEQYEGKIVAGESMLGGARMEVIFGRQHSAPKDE

variants of: B1; assay: enrichment ratio after two sorts for PhoP signalling (ratio (wild type AVST 3.29)); higher = more functional; settings: with PhoP (E. coli)
Over roughly 140,000 sequences, “enrichment ratio after two sorts for PhoP signalling” has its median near 0; the highest 2% begin near 11. The sample as a whole holds a higher share of the highest values than the screen did.
attribute measured: enrichment ratio
Give only the figure.

What value of enrichment ratio has been recorded for this entry: `SESS` 13.9

Same question, `TARR` this time 0.314

Same question, `AECN` this time 6.19

Same question, `AELV` this time 24.4

Same question, `ICLI` this time 5.89

Same question, `TVSS` this time 11.6

Same question, `AEGN` this time 12.2

Same question, `SDSS` this time 0.569

Same question, `AIGN` this time 6.31

Same question, `AELN` this time 12.5
